Assay system: HIV-1 NefNL4-3 (Human immunodeficiency virus type 1 group M subtype B, UniProt P03406, A33V/T15A/T51N/V11I)
Method notes: Surface plasmon resonance binding to recombinant full-length Nef (NL4-3)
Test settings: response units at 30 μM relative to Nef immobilized on the SPR chip
Attribute: RU30/RUNef (extent of binding)
Observation type: RU30/RUNef (extent of binding) (E- 03)

INSERT INTO measurements (compound, observation_type, measured_result) VALUES
  ('Oc1c(CCc2ccc(F)cc2)c(-c2ccc(C(F)(F)F)cn2)nn1-c1nc2cccnc2[nH]1 [Compound I-302]', 'RU30/RUNef (extent of binding)', 1.66),
  ('Oc1c(CCc2ccc(F)cc2)c(C2CCN(Cc3ccccn3)CC2)nn1-c1nc2ccccc2[nH]1 [Compound I-802]', 'RU30/RUNef (extent of binding)', 2.48),
  ('COc1cc(N2CCC(CCc3c(C4CC4)nn(-c4nc5cc(Cl)ccc5[nH]4)c3O)CC2)nc(OC)n1 [Compound I-902]', 'RU30/RUNef (extent of binding)', 7.18),
  ('CC(C)(C)c1nn(-c2nc3ccccc3[nH]2)c(O)c1CC1CCOCC1 [Compound I-180]', 'RU30/RUNef (extent of binding)', 2.62),
  ('Oc1c(CC2CCOCC2)c(-c2ccc(F)cc2)nn1-c1nc2cc(F)ccc2[nH]1 [Compound I-173]', 'RU30/RUNef (extent of binding)', 5.24),
  ('Oc1c(CCc2ccc(F)cc2)c(C2CCN(Cc3cccnc3)CC2)nn1-c1nc2ccccc2[nH]1 [Compound I-803]', 'RU30/RUNef (extent of binding)', 1.69),
  ('CC(=O)N1CCC(c2nn(-c3nc4cc(Cl)ccc4[nH]3)c(O)c2CCn2nccn2)CC1 [Compound I-704]', 'RU30/RUNef (extent of binding)', 1.92),
  ('CC(C)(C)OC(=O)N1CCC(Cc2nn(-c3nc4ccccc4[nH]3)c(O)c2CCc2ccc(F)cc2)CC1 [Compound I-770]', 'RU30/RUNef (extent of binding)', 3.04);
